Biological target: UniProt Q03181
Sequence (Q03181 whole entry, species assumed): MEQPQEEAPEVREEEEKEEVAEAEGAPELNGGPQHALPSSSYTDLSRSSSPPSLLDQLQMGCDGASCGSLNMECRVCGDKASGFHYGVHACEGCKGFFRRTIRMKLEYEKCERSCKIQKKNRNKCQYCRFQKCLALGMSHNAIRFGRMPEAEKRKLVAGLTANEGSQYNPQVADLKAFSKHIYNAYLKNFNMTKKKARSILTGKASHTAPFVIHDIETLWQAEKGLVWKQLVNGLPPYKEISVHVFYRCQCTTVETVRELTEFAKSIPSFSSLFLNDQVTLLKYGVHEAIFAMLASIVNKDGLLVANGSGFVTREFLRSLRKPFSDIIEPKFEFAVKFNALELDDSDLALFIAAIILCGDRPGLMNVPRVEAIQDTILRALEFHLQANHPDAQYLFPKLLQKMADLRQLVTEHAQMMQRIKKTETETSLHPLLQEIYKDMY
Sequence (P19793 whole entry partner, species assumed): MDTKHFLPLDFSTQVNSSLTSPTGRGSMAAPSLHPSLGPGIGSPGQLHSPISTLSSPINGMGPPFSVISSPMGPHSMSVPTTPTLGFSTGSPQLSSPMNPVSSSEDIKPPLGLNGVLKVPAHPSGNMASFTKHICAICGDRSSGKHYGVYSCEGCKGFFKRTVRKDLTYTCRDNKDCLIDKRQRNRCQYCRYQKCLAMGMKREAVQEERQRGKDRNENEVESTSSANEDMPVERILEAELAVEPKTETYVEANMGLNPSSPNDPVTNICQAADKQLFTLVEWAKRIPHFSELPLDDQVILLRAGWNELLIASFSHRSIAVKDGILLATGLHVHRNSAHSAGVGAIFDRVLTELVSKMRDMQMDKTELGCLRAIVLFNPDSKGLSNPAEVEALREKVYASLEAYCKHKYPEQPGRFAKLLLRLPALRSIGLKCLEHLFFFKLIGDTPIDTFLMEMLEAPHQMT
Assay: Nuclear receptor reporter gene (luciferase) screening model, PPARδ activation in HepG2 cells
Format: cell-based
Conditions: 0.01 uM; HepG2; solvent control = 1
Assay endpoint: Experiment results (relative activation fold) PPARδ

Sample records with Experiment results (relative activation fold) PPARδ:
CCc1cc(OCCc2nc(-c3ccc(C)cc3)oc2C)ccc1CCC(=O)O [Compound 5] ... 2.44
CCc1cc(OCCc2nc(-c3ccc([N+](=O)[O-])cc3)oc2C)ccc1CCC(=O)O [Compound 7] ... 2.72
CCc1cc(OCCc2nc(-c3ccc(C(F)(F)F)cc3)oc2C)ccc1CCC(=O)O [Compound 3] ... 1.17
CCc1cc(OCCc2nc(-c3ccc(C(C)(C)C)cc3)oc2C)ccc1CCC(=O)O [Compound 4] ... 1.53
CCc1cc(OCCc2coc(-c3ccc(C(F)(F)F)cc3)n2)ccc1CCC(=O)O [Compound 2] ... 1.17

P: CCc1cc(OCCc2nc(-c3ccc(-c4nnn[nH]4)cc3)oc2C)ccc1CCC(=O)O [Compound 6]
Q: CCc1cc(OCCc2nc(-c3ccc(C#N)cc3)oc2C)ccc1CCC(=O)O [Compound 8]
Query :: # returns the entry with the larger Experiment results (relative activation fold) PPARδ; inputs P and Q State your choice using its label.
Result :: Q

###

Molecular target: UniProt Q03181
Assay: Nuclear receptor reporter gene (luciferase) screening model, PPARδ activation in HepG2 cells
Type: cell-based
Settings: 1 uM; HepG2; solvent control = 1
Assay endpoint: Experiment results (relative activation fold) PPARδ

Some compounds with recorded Experiment results (relative activation fold) PPARδ:
CCc1cc(OCCc2nc(-c3ccc(C(N)=O)cc3)oc2C)ccc1CCC(=O)O [Compound 9] ... 3.38
CCc1cc(OCCc2nc(-c3ccc([N+](=O)[O-])cc3)oc2C)ccc1CCC(=O)O [Compound 7] ... 3.70

I: CCc1cc(OCCc2coc(-c3ccc(C(F)(F)F)cc3)n2)ccc1CCC(=O)O [Compound 2]
II: CCc1cc(OCCc2nc(-c3ccc(C)cc3)oc2C)ccc1CCC(=O)O [Compound 5]
Query :: Looking only at measured Experiment results (relative activation fold) PPARδ, which entry is lower, I or II ? Mark your answer with the label of the selected entry.
Result :: I
(I: 1.34 fold, II: 3.69 fold)

###

Target: PPARα (Homo sapiens (Human), UniProt Q07869)
Sequence (Q07869 whole entry, species assumed, one chain of several): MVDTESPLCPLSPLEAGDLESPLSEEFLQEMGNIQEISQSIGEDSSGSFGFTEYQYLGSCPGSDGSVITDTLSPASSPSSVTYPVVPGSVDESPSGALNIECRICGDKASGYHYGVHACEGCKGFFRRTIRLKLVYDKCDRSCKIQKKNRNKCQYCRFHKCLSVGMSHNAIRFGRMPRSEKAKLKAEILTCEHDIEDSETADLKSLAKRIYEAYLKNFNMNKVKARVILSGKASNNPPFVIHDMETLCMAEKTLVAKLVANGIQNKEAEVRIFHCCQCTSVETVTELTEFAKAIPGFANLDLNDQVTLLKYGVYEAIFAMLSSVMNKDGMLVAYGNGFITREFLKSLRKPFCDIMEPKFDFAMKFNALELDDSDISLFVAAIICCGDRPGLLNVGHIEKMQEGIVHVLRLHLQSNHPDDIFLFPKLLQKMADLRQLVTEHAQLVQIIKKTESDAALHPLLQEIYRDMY
Assay: Nuclear receptor reporter gene (luciferase) screening model, PPARα activation in HepG2 cells
Format: cell-based
Settings: 0.01 uM; HepG2; solvent control = 1
Source text: Using a reporter gene method, a screening model for screening a nuclear receptor agonist in living cells is designed on the basis of the principal that a nuclear receptor can activate transcription of its downstream gene after being activated. […] The receptor being activated can induce the expression of the luciferase gene, while the amount of generated luciferase can be determined with its luminescent substrate. […]
Assay endpoint: Experiment results (relative activation fold) PPARα

CCc1cc(OCCc2nc(-c3ccc(C(F)(F)F)cc3)oc2C)ccc1CCC(=O)O ... 1.11
CCc1cc(OCCc2nc(-c3ccc(C(C)(C)C)cc3)oc2C)ccc1CCC(=O)O ... 1.20
CCc1cc(OCCc2nc(-c3ccc(C#N)cc3)oc2C)ccc1CCC(=O)O ... 1.35
CCc1cc(OCCc2nc(-c3ccc(C)cc3)oc2C)ccc1CCC(=O)O ... 1.45
CCc1cc(OCCc2nc(-c3ccc(-c4nnn[nH]4)cc3)oc2C)ccc1CCC(=O)O ... 1.23
CCc1cc(OCCc2nc(-c3ccc(F)cc3)oc2C)ccc1CCC(=O)O ... 1.08
CCc1cc(OCCc2nc(-c3ccc([N+](=O)[O-])cc3)oc2C)ccc1CCC(=O)O ... 1.32
CCc1cc(OCCc2nc(-c3ccc(C(N)=O)cc3)oc2C)ccc1CCC(=O)O ... 1.17
CCc1cc(OCCc2coc(-c3ccc(C(F)(F)F)cc3)n2)ccc1CCC(=O)O ... 1.06
